Below, each entry is listed alongside its reported Mouse Optimal Dose (highest tolerated dose in at least 2 of 3 experiments).
# Test system: IP L1210 leukemia
# method: Mouse optimal (highest tolerated) dose, IP L1210 leukemia, Days 1, 5 and 9 schedule (Table 7)
# Assay type: in vivo
A number alone suffices; assume mg/kg.

Worked cases, answers included:
| molecule | unit_label | endpoint_result |
| --- | --- | --- |
| N.N.[Cl][Pt][Cl] [Cisplatin, cis-diamminedichloroplatinum (II), reference compound] | mg/kg | 10 |
| [Cl][Pt-2]1([Cl])([Cl])([Cl])[NH2+][C@H]2CCCC[C@@H]2[NH2+]1 [trans (d)] | mg/kg | 8 |
| [Cl][Pt]1([Cl])([Cl])([Cl])[NH]C2CCCCC2[NH]1 (stereo not drawn) [trans (d, l)] | mg/kg | 8 |
| [Cl][Pt-2]1([Cl])([Cl])([Cl])[NH2+][C@@H]2CCCC[C@H]2[NH2+]1 [trans (l)] | mg/kg | 8 |

Input: Provide one value: measured Mouse Optimal Dose (highest tolerated dose in at least 2 of 3 experiments) of N[C@@H]1CCCC[C@H]1N.O=C([O-])c1ccc(C(=O)[O-])c(C(=O)[O-])c1.[H+].[Pt+2] [Carboxyphthalato Platinum, reference compound]
Output: 12.5

Hey, just so you know, these numbers are from patent US4599352A.
